All values here come from patent US9024017B2.

The following molecules are shown together with reported IC50 values.
# system: UniProt:P41597
# assay_overview: MCP-1 Receptor Binding Assay in THP-1 Cells
# setup_conditions: read-out: MCP1B_v3 IC50

molecule	IC50 (µM)
COC1COCCC1N[C@@H]1C[C@H]2CN(C(=S)NCc3ccccc3)C[C@@]2(C(=O)N2CCc3ncc(C(F)(F)F)cc3C2)C1 (relative stereo) [Example 26]	0.2
COC1COCCC1N[C@@H]1C[C@H]2CNC(=O)[C@@]2(C(=O)N2CCc3ncc(C(F)(F)F)cc3C2)C1 (relative stereo) [Example 119]	12
COC1COCCC1N[C@@H]1C[C@H]2CN(C3COC3)C[C@@]2(C(=O)N2CCc3ccc(C(F)(F)F)cc3C2)C1 (relative stereo) [Example 100]	0.03

* * *

# system: CCR2 (Homo sapiens)
# assay_overview: MCP-1 Receptor Binding Assay in THP-1 Cells
# setup_conditions: read-out: MCP1B_v3 IC50
compounds and their reported IC50
recorded_endpoint: IC50

compound	data_value
COC1COCCC1N[C@@H]1C[C@H]2CN(C#N)C[C@@]2(C(=O)N2CCc3ncc(C(F)(F)F)cc3C2)C1 (relative stereo)	5.4 µM
CO[C@H]1COCC[C@H]1N[C@@H]1C[C@H]2CN(C(N)=O)C[C@@]2(C(=O)N2CCc3ncc(C(F)(F)F)cc3C2)C1	0.04 µM
COC1COCCC1N[C@@H]1C[C@H]2CN(C(N)=S)C[C@@]2(C(=O)N2CCc3ncc(C(F)(F)F)cc3C2)C1 (relative stereo)	0.09 µM
COC1COCCC1N[C@@H]1C[C@H]2CN(C(=O)OCCNC(C)=O)C[C@@]2(C(=O)N2CCc3ncc(C(F)(F)F)cc3C2)C1 (relative stereo)	0.05 µM
COC1COCCC1N[C@@H]1C[C@H]2CN(C(N)=O)C[C@@]2(C(=O)NCc2cc(C(F)(F)F)cc(C(F)(F)F)c2)C1 (relative stereo)	0.1 µM
COC1COCCC1N[C@@H]1C[C@H]2CN(/C(N)=N/O)C[C@@]2(C(=O)N2CCc3ncc(C(F)(F)F)cc3C2)C1 (relative stereo)	1.8 µM
COC1COCCC1N[C@@H]1C[C@H]2CN(C(C)C)C[C@@]2(C(=O)N2CCc3ncc(C(F)(F)F)cc3C2)C1 (relative stereo)	1.22 µM
C#CCOC(=O)N1C[C@@H]2C[C@@H](NC3CCOCC3OC)C[C@]2(C(=O)N2CCc3ncc(C(F)(F)F)cc3C2)C1 (relative stereo)	0.2 µM
COC1COCCC1N[C@@H]1C[C@H]2CN(C(=O)N3CCOCC3)C[C@@]2(C(=O)N2CCc3ncc(C(F)(F)F)cc3C2)C1 (relative stereo)	0.42 µM
COC1COCCC1N[C@@H]1C[C@H]2CN(C(=O)n3ccnc3)C[C@@]2(C(=O)N2CCc3ccc(C(F)(F)F)cc3C2)C1 (relative stereo)	0.05 µM
COC1COCCC1N[C@@H]1C[C@H]2CN(C(=O)OCC(C)(C)C)C[C@@]2(C(=O)N2CCc3ncc(C(F)(F)F)cc3C2)C1 (relative stereo)	0.56 µM
COC1COCCC1N[C@@H]1C[C@H]2CN(C(=O)c3ccno3)C[C@@]2(C(=O)N2CCc3ncc(C(F)(F)F)cc3C2)C1 (relative stereo)	0.16 µM
COC1COCCC1N[C@@H]1C[C@H]2CN(C(=O)NCC(C)C)C[C@@]2(C(=O)N2CCc3ncc(C(F)(F)F)cc3C2)C1 (relative stereo)	0.11 µM
COC1COCCC1N[C@@H]1C[C@H]2CN(C(=O)OCCN3CCOCC3)C[C@@]2(C(=O)N2CCc3ncc(C(F)(F)F)cc3C2)C1 (relative stereo)	0.01 µM
COC1COCCC1N[C@@H]1C[C@H]2CN(C(=O)OCCC(C)(C)O)C[C@@]2(C(=O)N2CCc3ccc(OC(F)(F)F)cc3C2)C1 (relative stereo)	0.03 µM
COC1COCCC1N[C@@H]1C[C@H]2CN(C(=O)c3cocn3)C[C@@]2(C(=O)N2CCc3ncc(C(F)(F)F)cc3C2)C1 (relative stereo)	0.03 µM
NC(=O)N1C[C@@H]2C[C@@H](NC3CCOCC3)C[C@]2(C(=O)N2CCc3ncc(C(F)(F)F)cc3C2)C1	0.17 µM
COc1cccc(COC(=O)N2C[C@@H]3C[C@@H](NC4CCOCC4OC)C[C@]3(C(=O)N3CCc4ncc(C(F)(F)F)cc4C3)C2)c1 (relative stereo)	0.1 µM
COC1COCCC1N[C@@H]1C[C@H]2CN(S(=O)(=O)NCc3ccccc3)C[C@@]2(C(=O)N2CCc3ncc(C(F)(F)F)cc3C2)C1 (relative stereo)	0.41 µM
CO[C@H]1COCC[C@H]1N[C@@H]1C[C@H]2CN(C(=O)OCCC3CCOCC3)C[C@@]2(C(=O)N2CCc3ncc(C(F)(F)F)cc3C2)C1	0.08 µM
COC1COCCC1N[C@@H]1C[C@H]2CN(C(=O)c3nccs3)C[C@@]2(C(=O)N2CCc3ncc(C(F)(F)F)cc3C2)C1 (relative stereo)	0.04 µM
C=CCOC(=O)N1C[C@@H]2C[C@@H](NC3CCOCC3OC)C[C@]2(C(=O)N2CCc3ncc(C(F)(F)F)cc3C2)C1 (relative stereo)	0.04 µM
COC1COCCC1N[C@@H]1C[C@H]2CN(C(=O)c3ccccc3)C[C@@]2(C(=O)N2CCc3ncc(C(F)(F)F)cc3C2)C1 (relative stereo)	0.15 µM

* * *

# system: CCR2 (Homo sapiens, UniProt P41597)
# Sequence (P41597 whole entry): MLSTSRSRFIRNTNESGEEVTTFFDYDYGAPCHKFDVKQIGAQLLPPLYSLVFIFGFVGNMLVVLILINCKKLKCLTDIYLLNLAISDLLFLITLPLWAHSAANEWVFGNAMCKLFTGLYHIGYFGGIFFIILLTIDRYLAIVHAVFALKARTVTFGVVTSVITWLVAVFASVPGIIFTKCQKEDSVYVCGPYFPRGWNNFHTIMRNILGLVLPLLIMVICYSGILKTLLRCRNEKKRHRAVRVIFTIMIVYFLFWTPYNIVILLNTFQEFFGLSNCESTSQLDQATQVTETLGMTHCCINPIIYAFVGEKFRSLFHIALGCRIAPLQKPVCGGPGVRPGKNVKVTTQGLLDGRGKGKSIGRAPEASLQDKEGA
# assay_overview: MCP-1 Receptor Binding Assay in THP-1 Cells
# setup_conditions: read-out: MCP1B_v3 IC50
pIC50: −log10 of the molar value.
Listed here are compounds together with their documented pIC50.
recorded_endpoint: pIC50

compound	system	recorded_endpoint	data_value
COC1COCCC1N[C@@H]1C[C@H]2CN(C(=O)/C=C/CN3CCCC3)C[C@@]2(C(=O)N2CCc3ncc(C(F)(F)F)cc3C2)C1 (relative stereo)	CCR2 (Homo sapiens, UniProt P41597)	pIC50	7.40
COC1COCCC1N[C@@H]1C[C@H]2CN(C3=NCCO3)C[C@@]2(C(=O)N2CCc3ncc(C(F)(F)F)cc3C2)C1 (relative stereo)	CCR2 (Homo sapiens, UniProt P41597)	pIC50	7.00
COC1COCCC1N[C@@H]1C[C@H]2CN(C(=O)OCc3ccccc3)C[C@@]2(C(=O)N2CCc3ncc(C(F)(F)F)cc3C2)C1 (relative stereo)	CCR2 (Homo sapiens, UniProt P41597)	pIC50	6.92
COC1COCCC1N[C@@H]1C[C@H]2CN(C(=O)OCC3CCOCC3)C[C@@]2(C(=O)N2CCc3ncc(C(F)(F)F)cc3C2)C1 (relative stereo)	CCR2 (Homo sapiens, UniProt P41597)	pIC50	7.52
COC1COCCC1N[C@@H]1C[C@H]2CN(C(=S)NCC(C)C)C[C@@]2(C(=O)N2CCc3ncc(C(F)(F)F)cc3C2)C1 (relative stereo)	CCR2 (Homo sapiens, UniProt P41597)	pIC50	7.52
COC1COCCC1N[C@@H]1C[C@H]2CN(C(=O)OCCC(F)(F)F)C[C@@]2(C(=O)N2CCc3ncc(C(F)(F)F)cc3C2)C1 (relative stereo)	CCR2 (Homo sapiens, UniProt P41597)	pIC50	6.85

* * *

# system: CCR2 (Homo sapiens)
# assay_overview: MCP-1 Receptor Binding Assay in THP-1 Cells
# setup_conditions: read-out: MCP1B_v3 IC50
pIC50: −log10 of the molar value.

molecule	pIC50
COC1COCCC1N[C@@H]1C[C@H]2CN(CC(=O)N(C)C)C[C@@]2(C(=O)N2CCc3ncc(C(F)(F)F)cc3C2)C1 (relative stereo)	5.55
COC1COCCC1N[C@@H]1C[C@H]2CN(C(N)=O)C[C@@]2(C(=O)N2CCc3ncc(C(F)(F)F)cc3C2)C1 (relative stereo)	7.22
CNC(=S)N1C[C@@H]2C[C@@H](N(C(=S)NC)C3CCOCC3OC)C[C@]2(C(=O)N2CCc3ncc(C(F)(F)F)cc3C2)C1 (relative stereo)	6.60
COC1COCCC1N[C@@H]1C[C@H]2CN(C(=O)OCCN(C)C)C[C@@]2(C(=O)N2CCc3ncc(C(F)(F)F)cc3C2)C1 (relative stereo)	6.82
COC1COCCC1N[C@@H]1C[C@H]2CN(C3CC3)C[C@@]2(C(=O)N2CCc3ccc(C(F)(F)F)cc3C2)C1 (relative stereo)	7.52
COC1COCCC1N[C@@H]1C[C@H]2CN(C(=O)C#CC3CC3)C[C@@]2(C(=O)N2CCc3ncc(C(F)(F)F)cc3C2)C1 (relative stereo)	7.05
COC1COCCC1N[C@@H]1C[C@H]2CN(C(=O)OCCNC(C)=O)C[C@@]2(C(=O)N2CCc3ccc(C(F)(F)F)cc3C2)C1 (relative stereo)	8.00
COC1COCCC1N[C@@H]1C[C@H]2CN(C(=S)n3ccnc3)C[C@@]2(C(=O)N2CCc3ncc(C(F)(F)F)cc3C2)C1 (relative stereo)	7.10
COC1COCCC1N[C@@H]1C[C@H]2CN(C(=O)NCC(C)(C)C)C[C@@]2(C(=O)N2CCc3ncc(C(F)(F)F)cc3C2)C1 (relative stereo)	6.39
COC1COCCC1N[C@@H]1C[C@H]2CN(C3COC3)C[C@@]2(C(=O)N2CCc3ncc(C(F)(F)F)cc3C2)C1 (relative stereo)	6.89
COC1COCCC1N[C@@H]1C[C@H]2CN(S(=O)(=O)CCc3ccccc3)C[C@@]2(C(=O)N2CCc3ncc(C(F)(F)F)cc3C2)C1 (relative stereo)	6.01
